Target: Nucleic Acid
Test: Displacement of fluorescent pyrene-neomycin conjugate from tau stem-loop RNA
A collection of compounds and their measured EC50

[
  {
    "smiles-str": "NCCNCCNc1ccc(NCCNCCO)c2c1C(=O)c1c(O)ccc(O)c1C2=O",
    "relation-operator": "=",
    "EC50, µM": 0.31
  },
  {
    "smiles-str": "Nc1ccc(N)c2c1C(=O)c1c(N)ccc(N)c1C2=O",
    "relation-operator": ">",
    "EC50, µM": 100
  },
  {
    "smiles-str": "O=C1c2c(O)ccc(NCCNCCO)c2C(=O)c2c(NCCNCCO)ccc(O)c21",
    "relation-operator": "=",
    "EC50, µM": 4.4
  },
  {
    "smiles-str": "O=C1c2c(O)ccc(O)c2C(=O)c2c(NCCOCCO)ccc(NCCNCCO)c21",
    "relation-operator": "=",
    "EC50, µM": 14
  },
  {
    "smiles-str": "Nc1ccc(NCCNCCO)c2c1C(=O)c1c(O)ccc(O)c1C2=O",
    "relation-operator": "=",
    "EC50, µM": 29
  },
  {
    "smiles-str": "NCCNCCNc1ccc(NCCNCCN)c2c1C(=O)c1c(O)ccc(O)c1C2=O",
    "relation-operator": "=",
    "EC50, µM": 0.16
  },
  {
    "smiles-str": "Nc1ccc(O)c2c1C(=O)c1c(N)ccc(O)c1C2=O",
    "relation-operator": ">",
    "EC50, µM": 100
  }
]

----------
Target: Nucleic Acid
Test: Binding affinity to tau stem-loop RNA assessed as inhibition of RNA stem-loop unfolding
test-readout: IC50 (nM)

[
  {
    "smiles-str": "O=C1c2c(O)ccc(O)c2C(=O)c2c(NCCNCCO)ccc(NCCNCCO)c21",
    "unit-of-measure": "nM",
    "relation-operator": "=",
    "reported-measurement": 460
  },
  {
    "smiles-str": "O=C1c2c(O)ccc(NCCNCCO)c2C(=O)c2c(NCCNCCO)ccc(NCCNCCO)c21",
    "unit-of-measure": "nM",
    "relation-operator": "=",
    "reported-measurement": 420
  },
  {
    "smiles-str": "Nc1ccc(N)c2c1C(=O)c1c(O)ccc(O)c1C2=O",
    "unit-of-measure": "nM",
    "relation-operator": ">",
    "reported-measurement": 100000
  },
  {
    "smiles-str": "O=C1c2c(O)ccc(O)c2C(=O)c2c(NCCNCCO)ccc(F)c21",
    "unit-of-measure": "nM",
    "relation-operator": "=",
    "reported-measurement": 5700
  },
  {
    "smiles-str": "NCCNCCNc1ccc(NCCNCCN)c2c1C(=O)c1c(O)ccc(O)c1C2=O",
    "unit-of-measure": "nM",
    "relation-operator": "=",
    "reported-measurement": 130
  },
  {
    "smiles-str": "NCCNCCNCCNc1ccc(NCCNCCNCCN)c2c1C(=O)c1c(O)ccc(O)c1C2=O",
    "unit-of-measure": "nM",
    "relation-operator": "=",
    "reported-measurement": 130
  },
  {
    "smiles-str": "O=C1c2c(F)ccc(F)c2C(=O)c2c(NCCNCCO)ccc(NCCNCCO)c21",
    "unit-of-measure": "nM",
    "relation-operator": "=",
    "reported-measurement": 2300
  },
  {
    "smiles-str": "Nc1ccc(N)c2c1C(=O)c1c(N)ccc(N)c1C2=O",
    "unit-of-measure": "nM",
    "relation-operator": ">",
    "reported-measurement": 100000
  },
  {
    "smiles-str": "O=C1c2c(NCCNCCO)ccc(NCCNCCO)c2C(=O)c2c(NCCNCCO)ccc(NCCNCCO)c21",
    "unit-of-measure": "nM",
    "relation-operator": "=",
    "reported-measurement": 340
  },
  {
    "smiles-str": "CC(C)(C)OC(=O)NCCNCCNc1ccc(NCCNCCO)c2c1C(=O)c1c(O)ccc(O)c1C2=O",
    "unit-of-measure": "nM",
    "relation-operator": "=",
    "reported-measurement": 2400
  },
  {
    "smiles-str": "NCCNCCNCCNc1ccc(NCCNCCO)c2c1C(=O)c1c(O)ccc(O)c1C2=O",
    "unit-of-measure": "nM",
    "relation-operator": "=",
    "reported-measurement": 230
  },
  {
    "smiles-str": "Nc1ccc(O)c2c1C(=O)c1c(N)ccc(O)c1C2=O",
    "unit-of-measure": "nM",
    "relation-operator": ">",
    "reported-measurement": 100000
  },
  {
    "smiles-str": "Nc1ccc(NCCNCCO)c2c1C(=O)c1c(O)ccc(O)c1C2=O",
    "unit-of-measure": "nM",
    "relation-operator": "=",
    "reported-measurement": 5800
  },
  {
    "smiles-str": "NCCNCCNc1ccc(NCCNCCO)c2c1C(=O)c1c(O)ccc(O)c1C2=O",
    "unit-of-measure": "nM",
    "relation-operator": "=",
    "reported-measurement": 180
  },
  {
    "smiles-str": "O=C1c2c(O)ccc(NCCNCCO)c2C(=O)c2c(NCCNCCO)ccc(O)c21",
    "unit-of-measure": "nM",
    "relation-operator": "=",
    "reported-measurement": 1500
  },
  {
    "smiles-str": "O=C1c2c(O)ccc(O)c2C(=O)c2c(NCCOCCO)ccc(NCCNCCO)c21",
    "unit-of-measure": "nM",
    "relation-operator": "=",
    "reported-measurement": 5700
  }
]
